Sourced from patent US12521395B2

Biological target: IDH2^R172K (Homo sapiens, UniProt P48735, R172K)
Sequence (P48735 40-452 R172K): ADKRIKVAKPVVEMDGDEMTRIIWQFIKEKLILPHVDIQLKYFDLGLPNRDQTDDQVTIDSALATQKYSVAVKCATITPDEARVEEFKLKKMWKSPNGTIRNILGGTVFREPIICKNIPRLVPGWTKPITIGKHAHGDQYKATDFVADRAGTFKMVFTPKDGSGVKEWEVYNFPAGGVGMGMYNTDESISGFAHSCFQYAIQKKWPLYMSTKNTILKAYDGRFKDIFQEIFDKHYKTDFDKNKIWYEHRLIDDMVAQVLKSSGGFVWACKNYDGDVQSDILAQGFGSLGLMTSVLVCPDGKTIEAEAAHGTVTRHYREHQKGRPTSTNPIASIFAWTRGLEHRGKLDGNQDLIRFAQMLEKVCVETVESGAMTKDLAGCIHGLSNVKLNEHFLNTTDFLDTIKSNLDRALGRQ
Assay: NADPH depletion assay (diaphorase/resazurin), IDH2 R172K
Settings: IDH2^R172K 16 nM, alpha-ketoglutarate 0.55 mM
pIC50: −log10 of the molar value.
PARAMETER: pIC50

> print(dat)
                                   compound  parameter  number
1  C=CC(=O)N1CCN(C(CC)(CC)c2ccc([C@H](C)Nc3ncc4ccc(=O)n(C(C)C)c4n3)cc2)CC1 [cpd 4]      pIC50    7.64
2  C=CC(=O)N1CCN(C2(c3ccc([C@H](C)Nc4cc5c(ccc(=O)n5C(C)C)cn4)cc3)CCC(F)(F)CC2)CC1 [cpd 47]      pIC50    7.01
3  C=CC(=O)N1CCN(C2(c3ccc([C@H](C)Nc4ncc5ccc(=O)n(C(C)C)c5n4)cc3)CCC(F)(F)CC2)CC1 [cpd 26]      pIC50    6.90
4  C=CC(=O)N1CC(N(C)C2(c3ccc([C@H](C)Nc4ncc5ccc(=O)n(C(C)C)c5n4)cc3)CCC(F)(F)CC2)C1 [cpd 50]      pIC50    6.29
5  C=CC(=O)N1CCN(C2(c3ccc([C@H](C)Nc4ncc5ccc(=O)n(C(C)C)c5n4)cc3)CCOCC2)CC1 [cpd 1]      pIC50    6.95
6  C=CC(=O)N1CCN(C2(c3ccc(C(C)(C)Nc4ncc5ccc(=O)n(C(C)C)c5n4)cc3)CCC(F)(F)CC2)CC1 [cpd 52]      pIC50    6.49
7  C=CC(=O)N1CCN(C2(c3ccc([C@H](C)Nc4cc5c(ccc(=O)n5C(C)C)cn4)cc3)CCOCC2)CC1 [cpd 11]      pIC50    6.54
